Origin of values: ChEMBL document CHEMBL1143499

Target: cGMP-dependent 3',5'-cyclic phosphodiesterase (Homo sapiens, UniProt O00408)
Sequence (O00408 whole entry): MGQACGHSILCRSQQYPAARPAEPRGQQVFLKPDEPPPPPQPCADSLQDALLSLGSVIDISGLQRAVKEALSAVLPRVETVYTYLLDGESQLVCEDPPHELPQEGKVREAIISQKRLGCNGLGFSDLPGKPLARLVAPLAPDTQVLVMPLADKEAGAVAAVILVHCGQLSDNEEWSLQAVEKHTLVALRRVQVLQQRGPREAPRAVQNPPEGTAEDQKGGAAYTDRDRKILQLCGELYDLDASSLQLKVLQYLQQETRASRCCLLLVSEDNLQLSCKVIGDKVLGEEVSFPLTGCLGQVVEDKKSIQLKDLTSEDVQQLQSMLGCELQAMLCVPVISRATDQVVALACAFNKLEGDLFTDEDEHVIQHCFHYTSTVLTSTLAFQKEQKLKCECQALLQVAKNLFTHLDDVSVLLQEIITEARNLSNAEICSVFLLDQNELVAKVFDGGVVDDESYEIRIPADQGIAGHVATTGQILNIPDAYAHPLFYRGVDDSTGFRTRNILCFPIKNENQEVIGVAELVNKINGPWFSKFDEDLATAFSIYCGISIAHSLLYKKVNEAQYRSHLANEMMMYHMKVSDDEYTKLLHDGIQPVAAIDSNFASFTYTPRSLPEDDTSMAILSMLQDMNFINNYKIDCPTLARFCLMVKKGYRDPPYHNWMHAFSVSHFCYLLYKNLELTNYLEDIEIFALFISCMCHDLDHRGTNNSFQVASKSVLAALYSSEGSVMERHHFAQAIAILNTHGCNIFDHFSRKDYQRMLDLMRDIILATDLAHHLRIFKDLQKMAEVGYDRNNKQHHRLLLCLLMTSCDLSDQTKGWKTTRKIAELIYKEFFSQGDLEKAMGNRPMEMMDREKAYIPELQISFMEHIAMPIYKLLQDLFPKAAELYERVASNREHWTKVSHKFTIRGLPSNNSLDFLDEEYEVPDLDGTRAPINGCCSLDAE
test-readout: IC50 (nM)
Write the answer as a number in nM, unit excluded.

Req: System cGMP-dependent 3',5'-cyclic phosphodiesterase (Homo sapiens, UniProt O00408). Read-out IC50. Item CCOC(=O)c1sc(Nc2nc(NCc3ccc(OC)c(OC)c3)c3c(ncn3CC)n2)nc1C . Report value.
Resp: 1700

###

Assay: Relative binding to Phosphodiesterase 1 and Phosphodiesterase 7, ratio of IC50
test-readout: Ratio

Req: Complete the entry with Ratio for CCOC(=O)c1sc(Nc2nc(N3CCN(C)CC3)c3c(n2)N(Cc2cc(OC)c(OC)c(OC)c2)CCC3)nc1C
Resp: 39

A = CCOC(=O)c1sc(Nc2nc(N3CCNCC3)c3c(n2)N(Cc2cc(OC)c(OC)c(OC)c2)CCC3)nc1C
B = CCOC(=O)c1sc(Nc2nc(N3CCNCC3)c3c(n2)N(Cc2cc(OC)c(OC)c(OC)c2)CCO3)nc1C
C = CCOC(=O)c1sc(Nc2nc(NCc3ccc(OC)c(OC)c3)c3c(ncn3CC)n2)nc1C
Req: // ranking: key=Ratio, reverse=True Answer format: list of labels, ordered as asked.
Resp: B, A, C

###

Assay: Inhibition of Phosphodiesterase 7
test-readout: IC50 (nM)

For orientation, consider the following solved cases.
Req: Dear colleague, please send me the reported IC50 for CCOC(=O)c1sc(Nc2nc(N3CCNCC3)c3c(n2)N(Cc2ccc(S(C)(=O)=O)cc2)CC3)nc1C when you can.
Resp: 20

Req: Find the measured IC50 of CCOC(=O)c1sc(Nc2nc(N3CCNCC3)c3c(n2)N(Cc2cccnc2)CCC3)nc1C and report it.
Resp: 100

A = CCOC(=O)c1sc(Nc2nc(N3CCN(O)CC3)c3c(n2)N(Cc2ccccn2)CC3)nc1C
B = CCOC(=O)c1sc(Nc2nc(NCc3ccc(S(N)(=O)=O)cc3)c3c(ncn3CC)n2)nc1C
Req: Please compare: A and B . Report which one has the smaller IC50 value. Kindly state the label of the option you pick.
Resp: B

###

Test: Relative binding to Phosphodiesterase 4 and Phosphodiesterase 7, ratio of IC50
test-readout: Ratio

Req: Please report the measured Ratio for CCOC(=O)c1sc(Nc2nc(N3CCNCC3)c3c(n2)N(Cc2ccc(S(C)(=O)=O)cc2)CC3)nc1C
Resp: 94

Req: Dear colleague, please send me the reported Ratio for CCOC(=O)c1sc(Nc2nc(NCc3ccc(OC)c(OC)c3)c3c(ncn3CC)n2)nc1C when you can.
Resp: 7.3

A = CCOC(=O)c1sc(Nc2nc(NC)c3c(n2)N(Cc2ccc(S(C)(=O)=O)cc2)CC3)nc1C
B = CCOC(=O)c1sc(Nc2nc(N3CCN(C)CC3)c3c(n2)N(Cc2cc(OC)c(OC)c(OC)c2)CCC3)nc1C
C = CCOC(=O)c1sc(Nc2nc(N3CCNCC3)c3c(n2)N(Cc2cc(OC)c(OC)c(OC)c2)CCC3)nc1C
Req: Order the records so the highest Ratio appears first and the lowest last. Output spec: labels arranged per the requested ranking.
Resp: C, B, A
(C: 105, B: 27, A: 6)

###

Assay: Relative binding to Phosphodiesterase 4 and Phosphodiesterase 7, ratio of IC50
test-readout: Ratio

Req: Fill in Ratio for record CCOC(=O)c1sc(Nc2nc(N3CCNCC3)c3c(n2)N(Cc2ccc(S(C)(=O)=O)cc2)CCC3)nc1C
Resp: 54

a = CCOC(=O)c1sc(Nc2nc(N3CCNCC3)c3c(n2)N(Cc2cc(OC)c(OC)c(OC)c2)CC3)nc1C
b = CCOC(=O)c1sc(Nc2nc(NC)c3ncn(Cc4ccc(S(C)(=O)=O)cc4)c3n2)nc1C
Req: // task: argmin of Ratio over [ a , b ] Give the label of your selection.
Resp: b
(b: 3, a: 795)

a = CCOC(=O)c1sc(Nc2nc(N3CCNCC3)c3c(n2)N(Cc2cc(OC)c(OC)c(OC)c2)CCO3)nc1C
b = CCOC(=O)c1sc(Nc2nc(N3CCN(C)CC3)c3c(n2)N(Cc2cc(OC)c(OC)c(OC)c2)CC3)nc1C
Req: When the recorded Ratio values are compared, which is smaller: that of a or that of b ? To answer, give the label that identifies your chosen option.
Resp: b

A = CCOC(=O)c1sc(Nc2nc(N3CCN(O)CC3)c3c(n2)N(Cc2ccccn2)CC3)nc1C
B = CCOC(=O)c1sc(Nc2nc(N3CCN(C)CC3)c3c(n2)N(Cc2cc(OC)c(OC)c(OC)c2)CCO3)nc1C
Req: Choose between A and B : whose measured Ratio value is numerically larger? Answer by stating the label of the chosen item.
Resp: B

###

Assay: Relative binding to Phosphodiesterase 1 and Phosphodiesterase 7, ratio of IC50
test-readout: Ratio

Req: # return recorded Ratio for entry CCOC(=O)c1sc(Nc2nc(N3CCN(C)CC3)c3c(n2)N(Cc2cc(OC)c(OC)c(OC)c2)CC3)nc1C
Resp: 156

P = CCOC(=O)c1sc(Nc2nc(N3CCN(C)CC3)c3c(n2)N(Cc2cc(OC)c(OC)c(OC)c2)CCO3)nc1C
Q = CCOC(=O)c1sc(Nc2nc(N3CCN(O)CC3)c3c(n2)N(Cc2ccccn2)CC3)nc1C
R = CCOC(=O)c1sc(Nc2nc(NC)c3ncn(Cc4ccc(S(C)(=O)=O)cc4)c3n2)nc1C
S = CCOC(=O)c1sc(Nc2nc(N3CCNCC3)c3c(n2)N(Cc2ccc(S(C)(=O)=O)cc2)CC3)nc1C
Req: Rank descending by Ratio. Your answer should be the labels, listed in the requested order.
Resp: R, S, P, Q
(R: 556, S: 352, P: 64, Q: 35)

###

Test: Inhibition of Phosphodiesterase 4
test-readout: IC50 (nM)

a = CCOC(=O)c1sc(Nc2nc(NC)c3ncn(Cc4ccc(S(C)(=O)=O)cc4)c3n2)nc1C
b = CCCc1nn(C)c2c(=O)[nH]c(-c3cc(S(=O)(=O)N4CCN(C)CC4)ccc3OCC)nc12
Req: Given a and b , report the one with the higher recorded IC50. Respond with the label that goes with your answer.
Resp: b
(b: 4600 nM, a: 270 nM)

###

Molecular target: Phosphodiesterase 3 (Homo sapiens, UniProt Q14432+Q13370)
Assay: Inhibition of Phosphodiesterase 3
Format: protein assay
test-readout: IC50 (µM)

Req: Tell me measured IC50 for CCOC(=O)c1sc(Nc2nc(NCc3ccc(S(N)(=O)=O)cc3)c3c(ncn3CC)n2)nc1C please.
Resp: 2.97

P = CCOC(=O)c1sc(Nc2nc(NCc3ccc(OC)c(OC)c3)c3c(ncn3CC)n2)nc1C
Q = CCOC(=O)c1sc(Nc2nc(NC)c3ncn(Cc4ccc(S(C)(=O)=O)cc4)c3n2)nc1C
Req: Of P and Q , whose reported IC50 is numerically smaller? Lab note: record the label of whichever item you select.
Resp: P

###

Experiment: Inhibition of Phosphodiesterase 7
test-readout: IC50 (nM)

Req: Give a short answer stating reported IC50 for CCOC(=O)c1sc(Nc2nc(N3CCNCC3)c3c(n2)N(Cc2ccc(S(C)(=O)=O)cc2)CCC3)nc1C .
Resp: 60

Req: Quickly give me recorded IC50 for CCOC(=O)c1sc(Nc2nc(N3CCN(C)CC3)c3c(n2)N(Cc2cc(OC)c(OC)c(OC)c2)CCO3)nc1C
Resp: 70

###

Test: Relative binding to Phosphodiesterase 1 and Phosphodiesterase 7, ratio of IC50
test-readout: Ratio

Req: Identify measured Ratio associated with CCOC(=O)c1sc(Nc2nc(N3CCNCC3)c3c(n2)N(Cc2ccc(S(C)(=O)=O)cc2)CCC3)nc1C
Resp: 157

1 = CCOC(=O)c1sc(Nc2nc(N3CCNCC3)c3c(n2)N(Cc2cc(OC)c(OC)c(OC)c2)CC3)nc1C
2 = CCOC(=O)c1sc(Nc2nc(N3CCNCC3)c3c(n2)N(Cc2cccnc2)CCC3)nc1C
Req: Form: Entry with minimum Ratio (choose one): 1 / 2 Refer to your chosen entry by its label in the reply.
Resp: 2
(2: 162, 1: 576)
